molecular target: porcine pancreatic PLA2 (Sus scrofa, UniProt P00592); construct: purchased Sigma; experiment: PLA2 assay: in vitro porcine pancreatic phospholipase A2, preincubation of drug+enzyme, substrate 2 nM; type: biochemical; conditions: dose 10 μ/ml; preincubation; subs. con. 2; read-out: % Inh.
Sequence (P00592 23-146): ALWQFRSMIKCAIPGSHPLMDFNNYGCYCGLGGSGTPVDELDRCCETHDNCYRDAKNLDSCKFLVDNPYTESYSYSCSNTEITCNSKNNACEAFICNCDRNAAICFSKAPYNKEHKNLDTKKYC
Measure: inhibition at 10 µg/mL (%)
Answer format: numeric, % implied, no suffix.

C=C(CC(COCCCCCCCCCCCCCCCC)COP(=O)([O-])OCC[N+](C)(C)C)C(F)(F)CCCCCCCCCCCCCCCC (stereo not shown)	38

Ask: What value of inhibition at 10 µg/mL has been recorded for this entry: CCCCCCCCCCCCCCCCOCC(COP(=O)([O-])OCC[N+](C)(C)C)CC1(CCCCCCCCCCCCCCCC)CO1 (stereo not shown)
Reply: 78

Ask: Try CCCCCCCCCCCCCCCCOCC(COP(=O)([O-])OCC[N+](C)(C)C)CC(=O)C(F)(F)CCCCCCCCCCCCCCCC (stereo not shown) next.
Reply: 38

Ask: And CCCCCCCCCCCCCCCCOCC(COP(=O)([O-])OCC[N+](C)(C)C)CB(O)O (stereo not shown) ?
Reply: 57

---

Target: porcine pancreatic PLA2 (Sus scrofa, UniProt P00592)
Construct: purchased Sigma
Experiment: PLA2 assay: in vitro porcine pancreatic phospholipase A2, preincubation of drug+enzyme, substrate 2 nM
Assay type: biochemical
Settings: dose 10 μ/ml; preincubation; subs. con. 2; read-out: % Inh.
Experimental: Phospholipase A2 activity was measured by a radiochemical assay in which labeled synthetic phosphatidylcholine substrate is converted by porcine pancreatic PLA2 to free radiolabeled arachidonate and lyso PC. […] Radioactivity (cpm) in samples is quantitated by liquid scintillation counting. […] Labeled arachidonate extracted with CHCl3 /MeOH is separated on silica gel G TLC plates (Analtech). […] A 20 μL sample is counted in 10 ml of Beckman Redi-solv HP and spotted on silica gel G plates. […]
# reported inhibition at 10 µg/mL; entries follow
Numeric only. Scale: %

CCCCCCCCCCCCCCCCOCC(COP(=O)([O-])OCC[N+](C)(C)C)CC(C)(O)CCCCCCCCCCCCCCCC (stereo not shown)	65
CCCCCCCCCCCCCCCC[S+]([O-])CCCOP(=O)([O-])OCC[N+](C)(C)C (stereo not shown)	59
CCCCCCCCCCCCCCCCOCC(COP(=O)([O-])OCC[N+](C)(C)C)OP(=O)(OC)OCCCCC (single isomer, unassigned)	76
CCCCCOCC(COP(=O)([O-])OCC[N+](C)(C)C)OP(=O)(O)OCCCCC (single isomer, unassigned; less polar)	20
CCCCCCCCCCCCCCCC[C@]1(COP(=O)([O-])OCC[N+](C)(C)C)CC(=O)N1	82
C=C(CCCCCCCCCCCCCCCC)CC(COCCCCCCCCCCCCCCCC)COP(=O)([O-])OCC[N+](C)(C)C (stereo not shown)	59

We next turn to a different molecule, shown below.
Ask: Query for porcine pancreatic PLA2 (Sus scrofa, UniProt P00592): what inhibition at 10 µg/mL does the record show for CCCCCCCCCCCCCCCCOCC(COP(=O)([O-])OCC[N+](C)(C)C)OP(=O)(O)OCCCCC (single isomer, unassigned; less polar) ?
Reply: 21

---

molecular target: porcine pancreatic PLA2 (Sus scrofa, UniProt P00592); construct: purchased Sigma; experiment: PLA2 assay: in vitro porcine pancreatic phospholipase A2, preincubation of drug+enzyme, substrate 2 nM; assay type: biochemical; conditions: dose 10 μ/ml; preincubation; subs. con. 2; read-out: % Inh. Avg.
Categories are defined by ranges of inhibition at 10 µg/mL, namely bucket 1 = under 30%, bucket 2 = from 30% up to 60%, bucket 3 = 60% and over

Solved cases (10 shown):
CCCCCCCCCCCCCCCCOCC(COP(=O)([O-])OCC[N+](C)(C)C)CP(=O)(OCC)OCC (centres unmarked)	bucket 3
CCCCCCCCCCCCCCCCOC[C@H](COP(=O)([O-])OCC[N+](C)(C)C)OP(=O)(OC)OCCCCCCCCCCCCCCCC (single isomer, unassigned)	bucket 1
CCCCCCCCCCCCCCCCOC[C@@H](COP(=O)([O-])OCC[N+](C)(C)C)OP(=O)(OC)OCCCCCCCCCCCCCCCC (single isomer, unassigned)	bucket 1
CCCCCCCCCCCCCCCCS(=O)(=O)CCCOP(=O)([O-])OCC[N+](C)(C)C	bucket 3
CCCCCCCCCCCCCCCCOCC(COP(=O)([O-])OCC[N+](C)(C)C)CC(C)(O)CCCCCCCCCCCCCCCC (centres unmarked)	bucket 3
CCCCCCCCCCCCCCCCOC[C@@H](COP(=O)([O-])OCC[N+](C)(C)C)OP(=O)(O)OCCCCCCCCCCCCCCCC	bucket 1
CCCCCCCCCCCCCCCCCCOP(=O)(O)OCCOP(=O)([O-])OCC[N+](C)(C)C	bucket 2
CCCCCCCCCCCCCCCCOCC(CC=NO)COP(=O)([O-])OCC[N+](C)(C)C (centres unmarked)	bucket 2
CCCCCCCCCCCCCCCCOCC(COP(=O)([O-])OCC[N+](C)(C)C)CC1CO1 (centres unmarked)	bucket 3
CCCCCCCCCCCCCCCCSCCCOP(=O)([O-])OCC[N+](C)(C)C	bucket 1

Ask: Band assignment needed for CCCCCCCCCCCCCCCCOCC(COP(=O)([O-])OCC[N+](C)(C)C)CSCCCCCCCCCCCCCCCC (centres unmarked) please.
Reply: bucket 1

Ask: Query "CCCCCCCCCCCCCCCCOP(=O)(O)OCCOP(=O)([O-])OCC[N+](C)(C)C" next
Reply: bucket 1
